Numbers sourced from PubChem BioAssay (NCI).

- System: UACC-62 melanoma
- protocol text: NCI-60 one-dose screen, 48 h (100 = growth as untreated, 0 = no growth, -100 = all killed)
- experimental parameters: 10 µM unless noted
Compounds without any hit were thinned out: in the full panel of roughly 83,000, 20% have a hit.
recorded metric: growth (%)
Kindly answer with a numeric value in %, unit omitted.

Answered examples (3):
[
  {
    "molecule": "O=[N+]([O-])c1cc(-c2ccccc2)c(O)c([N+](=O)[O-])c1",
    "growth, %": 32
  },
  {
    "molecule": "O=C(O)c1cc2c(s1)C(=O)c1sccc1C2=O",
    "growth, %": 51
  },
  {
    "molecule": "CC(C)(C)c1ccc(O)c(-c2ccccc2)c1",
    "growth, %": 103
  }
]

Enquiry: Entry O/N=C1\c2ccccc2-c2ccc(F)cc21 has what growth?
Return: 93.8

Enquiry: Look up growth: Nc1nc(-c2ccccc2)nc(N)c1N=O
Return: 71.8

Enquiry: Dear colleague, I am looking for the recorded growth of the following molecule: O=C(c1ccccc1)c1cc2ccccc2oc1=O
Return: 93.4

Enquiry: Dear colleague, I am looking for the recorded growth of the following molecule: O=S(=O)(O)c1cnccn1
Return: 99.4

Enquiry: Form field: reported growth of CCOc1ccc(Nc2nc3c(s2)C(=O)c2ccccc2C3=O)cc1
Return: 56.6

Enquiry: Return reported growth; argument: CCN1/C(=C/C(C)=C/c2sc3ccc4ccccc4c3[n+]2CC)Sc2ccc3ccccc3c21
Return: -96.6

Enquiry: Any idea what growth was measured for COc1cc(/C=C2\SC(=S)N(/C=C/c3nc4ccccc4[nH]c3=O)C2=O)cc(OC)c1OC ?
Return: 81.9

Enquiry: Report growth for O=C1/C(=C/c2ccccc2)CCC/C1=C\c1ccccc1 please.
Return: 82.6

Enquiry: I am curious: what growth value has been reported for O=[N+]([O-])c1ccc(N2CCN(Cc3ccccc3)CC2)c2c1no[n+]2[O-] ?
Return: 4.15
